tested on: OVCAR-3 ovarian; experiment: NCI tumour cell line growth inhibition, 48 h
quantity kind: log10(TGI) (log10 of the value in µM)
All values: log10 TGI [µM].

Solved cases below.
> print(dat)
                                   compound  meas.value
1  CS/C(C)=N/OC(=O)NCCCCNc1ccc(N=[N+]=[N-])cc1        1.80
2  O=C(CCCSc1nc(-c2ccccc2)cc(-c2ccc(Cl)cc2)n1)NO        0.97
3  COc1cccc2c1C(=O)c1ccc3cc(CCl)cc(O)c3c1C2=O       -0.16
4  COc1cc2c3c(n(C)c(=O)c2cc1OC)-c1cc2c(cc1/C3=C\C(N)CN)OCO2 (stereo unspecified)        0.84
5  C=C1CCC2C3(C)COC(c4ccccc4Br)OC3CCC2(C)C1C/C=C1/C(=O)OCC1OC(C)=O (stereo unspecified)        0.39

In the following, a different compound is considered.
Q: Give the reported value of log10(TGI) for this record: COC(=O)C1(Cc2ccc3c(c2)CCC3)Cc2ccc3c(c2C1)CCC3 (stereo unspecified)
Ans: 1.78

---

tested on: MALME-3M melanoma; experiment: NCI tumour cell line growth inhibition, 48 h; in the data active = GI50 below about 0.43 µM; inactive = the rest
Choose one outcome from this list and give only that: active, inactive

Study these solved cases before continuing.
> print(dat)
                              smiles.string     class
1     CCN(CC)c1ccc(C(=N)c2ccc(N(C)C)cc2)cc1    active
2  CC(C)c1ccc(Nc2nccc(-c3cnn4ncccc34)n2)cc1  inactive
3  CCCc1cc(=O)n2c(C(=O)Nc3ccccc3OC)c(C(=O)Nc3ccc(F)cc3)sc2n1  inactive
4  O=C(CCCSc1nc(-c2ccccc2)cc(-c2ccc(Cl)cc2)n1)NO  inactive
5  CC(C)N1C(NNC(=O)c2cnccn2)=NS(=O)(=O)c2ccccc21  inactive

Q: Hi team, can someone confirm the assay call for CCCOC(=O)CCn1c(SC)nc2[nH]cc(-c3ccccc3)c2c1=O ?
Ans: inactive

Q: Hi team, can someone confirm the assay call for N.N.NCCCCCCN.O=C([O-])CC(=O)[O-].O=C([O-])CC(=O)[O-].[Pt+4].[Pt+4] ?
Ans: inactive

Q: Hi team, can someone confirm the assay call for CC(C)(C#N)c1cc(C(=O)Nc2cc(Nc3ncccc3-c3ncnc4nc[nH]c34)ccc2F)cc(C(F)(F)F)c1 ?
Ans: active

Q: Hi team, can someone confirm the assay call for CC(=O)O[C@H]1CC[C@@]2(C)[C@@H](CC[C@@H]3[C@@H]2CC[C@]2(C)C=C(C=O)C[C@@H]32)C1 ?
Ans: inactive

Q: Hi team, can someone confirm the assay call for O=C(COc1cccc(/C=C2\COc3ccc(Cl)cc3C2=O)c1)c1ccc(Cl)cc1 ?
Ans: inactive

Q: Hi team, can someone confirm the assay call for Nc1n[nH]c2cccc(C#Cc3cccc(C(=O)Nc4cc(CN5CCOCC5)cc(C(F)(F)F)c4)c3)c12 ?
Ans: inactive

Q: Hi team, can someone confirm the assay call for Nc1c(C(=O)Nc2ccccc2)sc2nc3c(cc12)CN(Cc1ccccc1)CC3 ?
Ans: inactive

---

system: HT29 colon; experiment: NCI tumour cell line growth inhibition, 48 h
quantity kind: log10 TGI (log10 of the value in µM)
All values: log10 TGI [µM].

> print(dat)
                                   molecule  quantity.kind  meas.value
1       CCCCOCCOC1=CC(=O)c2c(O)ccc(O)c2C1=O      log10 TGI        0.49
2  O=C(CCCSc1nc(-c2ccccc2)cc(-c2ccc(Cl)cc2)n1)NO      log10 TGI        1.12
3  O=C(CCCN1CCC2(CC1)CC(=O)N(N1CCCCCC1)C2=O)c1ccc(F)cc1      log10 TGI        1.53
4  C[C@]12CCc3sc(Nc4ccc(O)cc4)nc3C1=CC[C@@H]1[C@@H]2CC[C@]2(C)C(=O)CC[C@@H]12      log10 TGI        0.75
5               CSC1(SC2=NCCN2)SC2(NCCN2)S1      log10 TGI        1.58

Q: Give the reported value of log10 TGI for this record: O=C1OCC/C1=C/c1ccc(N=Nc2c(O)ccc3ccccc23)cc1
Ans: 1.54

---

tested on: SK-MEL-2 melanoma; test: NCI tumour cell line growth inhibition, 48 h; in the data active = GI50 below about 0.43 µM; inactive = the rest
Choose one outcome from this list and give only that: yes = active, no = inactive

> print(dat)
                                   molecule  class
1  CCCCN(CCCC)c1ccc(C(=NC(C)CCCN(CC)CC)c2ccc(N(C)C)cc2)cc1 (stereo not given)     no
2  OCC1OC(n2cnc3c(=S)nc[nH]c32)C(O)C1O (stereo not given)     no
3  CCNCCNc1cc(C2CCCCC2)c(C#N)c2nc3ccccc3n12     no
4  CCCCCCCOc1c(OC)cc(C2CC(=O)Nc3c2c(C)nn3-c2nc3ccccc3[nH]2)cc1OC (stereo not given)     no
5  CC(C)(C#N)c1cc(C(=O)Nc2cc(Nc3ncccc3-c3ncnc4nc[nH]c34)ccc2F)cc(C(F)(F)F)c1    yes

Let's switch to this molecule now.
Q: Hi team, can someone confirm the assay call for Cc1ccc2c(c1)C(=O)c1c-2n(CCCBr)c(=O)c2cc([N+](=O)[O-])ccc12 ?
Ans: no

---

system: DU-145 prostate; test: NCI tumour cell line growth inhibition, 48 h
quantity kind: GI50

> print(dat)
                              smiles.string  quantity.kind  meas.value
1  CC(C)c1ccc(Nc2nccc(-c3cnn4ncccc34)n2)cc1           GI50    0.809 µM
2  CC(C)C[C@H](NC(=O)[C@@H](O)[C@H](N)Cc1ccc([N+](=O)[O-])cc1)C(=O)O           GI50     > 25 µM
3  COCCNc1cc(NC(=O)N2CCCc3cc(CN4CCN(C)CC4=O)c(C=O)nc32)ncc1C#N           GI50     > 50 µM
4  Nc1n[nH]c2cccc(C#Cc3cccc(C(=O)Nc4cc(CN5CCOCC5)cc(C(F)(F)F)c4)c3)c12           GI50     9.82 µM

In the following, a different molecule is considered.
Q: Give the reported value of GI50 for this record: Nc1cc(N)c2nc(-c3ccccc3)c(NCc3ccc(F)cc3)nc2c1
Ans: 1.5 µM

---

Consider the following molecules and their measured TGI readings.
tested on: OVCAR-3 ovarian; experiment: NCI tumour cell line growth inhibition, 48 h

> print(dat)
                                   molecule   assayed.target  quantity.kind  meas.value
1  COCCNc1cc(NC(=O)N2CCCc3cc(CN4CCN(C)CC4=O)c(C=O)nc32)ncc1C#N  OVCAR-3 ovarian            TGI     > 50 µM

Q: Give the reported value of TGI for this record: CN(C(=O)c1ccncc1)c1ccccc1
Ans: > 100 µM

Q: Give the reported value of TGI for this record: CC(C)(C)[Si](C)(C)OCCOCn1cc(F)c(=O)[nH]c1=O
Ans: > 100 µM

Q: Give the reported value of TGI for this record: CCN(CC)CC(C(=O)Nc1c(C)cccc1C)/C(C)=N\NC(=O)c1ccncc1 (stereo unspecified)
Ans: > 100 µM

Q: Give the reported value of TGI for this record: CC(c1ccccc1)/[N+]([O-])=C/c1ccccc1 (stereo unspecified)
Ans: > 100 µM

Q: Give the reported value of TGI for this record: O=C1/C(=C/c2c(Cl)[nH]c3ccccc23)c2ccccc2N1c1ccccc1
Ans: 6.26 µM

---

test system: MDA-MB-435; test: NCI tumour cell line growth inhibition, 48 h
quantity kind: TGI (µM)
Express it in µM; write the number only.

Solved cases below.
molecule	readout unit	meas value
O=C1C(=C(I)I)c2ccccc2-c2ccccc21	µM	5.58
CCN(CC)C(=S)N=Nc1c(O)[nH]c2ccccc12	µM	18.8

Q: Give the reported value of TGI for this record: CN(C)CC1CCCCCC(CN(C)C)C1=O (stereo not given)
Ans: 13.2

Q: Give the reported value of TGI for this record: Cc1c(Cl)cccc1NC1=C(Cl)C(=O)N(Cc2ccccc2)C1=O
Ans: 20.8

Q: Give the reported value of TGI for this record: Cc1ccc(S(=O)(=O)Nn2c(S)c(C#N)c(-c3ccc([N+](=O)[O-])cc3)c(C#N)c2=O)cc1
Ans: 53.9

Q: Give the reported value of TGI for this record: COc1cc(C2CC(c3ccc(N(C)C)cc3)=NN2C(C)=O)cc(OC)c1OC (stereo not given)
Ans: 1.18

Q: Give the reported value of TGI for this record: O=C(O)CC1OCC=C2CN3CCC45C6=CC(=O)C(=O)C([N+](=O)[O-])=C6NC4C1C2CC35 (stereo not given)
Ans: 31.3

Q: Give the reported value of TGI for this record: CCSc1nc(=[N+]2CCCC2)ss1
Ans: 42.5

Q: Give the reported value of TGI for this record: COc1ccc(C2(O)c3ccccc3C(=O)N(C)C2(O)c2ccc(OC)cc2)cc1 (stereo not given)
Ans: 42.2
